Reference for the values: PubChem BioAssay

assay: compound effects on lung adenocarcinoma cell viability – A549, calcein-AM fluorescence, 48 h, basal, profiling panel (AID 1162); settings: higher = more signal; note: test concentration not given here
Recorded measurements of z-score, one per entry

Here is how some molecules turned out for z-score.
[
  {
    "molecule": "O=C1C2C=CC(C(O)c3ccc(Br)cc3)N(n3cnnc3)C2C(=O)N1Cc1ccccc1 (stereo not drawn)",
    "assay.readout": "z-score",
    "result": -1.71
  },
  {
    "molecule": "CS(=O)(=O)CCOC(=O)C1=CC(c2ccc(CO)cc2)=CC(c2cccs2)N(Cc2cccc(OC(F)(F)F)c2)C=C1C(=O)OCCS(C)(=O)=O (stereo not drawn)",
    "assay.readout": "z-score",
    "result": 0.0527
  },
  {
    "molecule": "CC(C)CNC(=O)[C@@]1(C)c2ccccc2C(=O)N(C(C)C)[C@H]1c1ccc(CO)cc1",
    "assay.readout": "z-score",
    "result": -0.238
  },
  {
    "molecule": "C=CC[C@@]1(C(=O)NCc2ccccc2)N=C(c2ccc(OCCCO)cc2)O[C@@H]1c1ccccc1CN=[N+]=[N-]",
    "assay.readout": "z-score",
    "result": -0.651
  },
  {
    "molecule": "COc1ccc([Si](C)(C)[C@@H]2[C@@H](CCO)O[C@]3(C(=O)N(Cc4cccc(N(C=O)c5ccccc5)c4)c4ccccc43)[C@H]2C)cc1",
    "assay.readout": "z-score",
    "result": -1.54
  },
  {
    "molecule": "C=C(C(=O)CC[C@@H](OC(C)=O)c1ccc(OCCO)cc1)C(C)C",
    "assay.readout": "z-score",
    "result": -0.382
  },
  {
    "molecule": "COCCCNC(=O)[C@@]1(C)c2ccccc2C(=O)N(Cc2ccccc2)[C@H]1c1ccc(CO)cc1",
    "assay.readout": "z-score",
    "result": 0.587
  },
  {
    "molecule": "CC(=O)NCCCC[C@@H]1NC(=O)[C@@H]2C[C@H](C(=O)NCc3ccc(F)cc3)[C@H](c3ccc(O)cc3)N2C1=O",
    "assay.readout": "z-score",
    "result": -0.484
  },
  {
    "molecule": "COCCOC(=O)N1C(=O)[C@@]2(c3cc(C#Cc4ccc(OC)cc4)ccc31)[C@H](c1ccc(O)cc1)N1[C@H](c3ccccc3)[C@H](c3ccccc3)OC(=O)[C@H]1[C@@H]2C(=O)N1CCN(c2ncccn2)CC1",
    "assay.readout": "z-score",
    "result": -0.514
  },
  {
    "molecule": "O=C1OCC=C[C@H]2OC34C=CCN(Cc5ccccc5)C(=O)[C@H]3N(CCCO)C(=O)[C@@H]4[C@@H]12 (stereo partly drawn)",
    "assay.readout": "z-score",
    "result": -0.518
  }
]

get_value(item= CC1CC/C=C\[C@H]2OC34C=CCN(CCN5CCOCC5)C(=O)[C@H]3N(CCCCCO)C(=O)[C@@H]4C2C(=O)O1 (stereo partly drawn) , readout=z-score) returns -0.365

The molecule C=CCNC(=O)[C@@H]1[C@H]2C(=O)O[C@H](c3ccccc3)[C@H](c3ccccc3)N2[C@H](c2ccccc2OCCO)[C@@]12C(=O)N(C(=O)OCCOC)c1ccc(C#CCC(C(=O)OC)C(=O)OC)cc12 showed z-score equal to 0.136

For [N-]=[N+]=NCc1ccccc1C[C@]1(C(=O)NCc2ccccc2)COC(c2ccc(OCCCO)cc2)=N1 the molecule record lists z-score as -2.45

For record NC(=O)NCC#Cc1ccc2c(c1)[C@]1(C(=O)N2)[C@H](c2ccccc2OCCO)N2[C@H](c3ccccc3)[C@H](c3ccccc3)OC(=O)[C@H]2[C@@H]1C(=O)N1CCCCCCC1 the listed z-score is -0.169

Per the record, O=C1OCCC=C[C@H]2OC34C=CCN(c5ccc6ccccc6c5)C(=O)[C@H]3N(CCCCCCO)C(=O)[C@@H]4C12 (stereo partly drawn) has z-score of 0.705
